The values you see were collected from PubChem BioAssay.

Assay: human hepatoma cell viability loss – ATP luminescence, cytotoxicity control for P. falciparum antimalarial project, primary screen (AID 2303)
Details: HepG2 viability, 24-48 h, at 10 µM, hits give high values
// NB: equality with 40% counts as condition not met; only inhibition strictly below is condition met

compound	group
CCCCOc1cc2c(cc1OCC)C(C=Cc1ccc(Cl)cc1Cl)=NCC2	condition met
Nc1ccc2nc(C=Cc3ccc(Cl)cc3)[nH]c2c1	condition met
Cc1nc2nc(N)nc(N)c2c(C)c1Cc1ccccc1Br	condition not met
CCOCc1cnc(C)nc1CNC(=O)c1c(C)[nH]c2ccc(C)cc12	condition met
CCOC(=O)N1CCN(CCCNc2c3ccccc3nc3ccccc23)CC1	condition met
CC(C)(C)c1cc(NC2CC2)nc(-c2ccccn2)n1	condition met
CN(CCCCN)Cc1ccc(-c2ccc(Cl)cc2)cc1	condition not met
COc1cc(C2C(Oc3ccccc3)C(=O)N2Cc2ccc(F)cc2)cc(OC)c1OC (stereo unspecified)	condition met
CCc1c[nH]c2c(N3CCCCC3=O)cc(C(=O)N[C@@H](Cc3ccccc3)[C@H](O)CNCc3cccc(OC)c3)cc12	condition met
O=C(Nc1ccc(NC2=NCCN2)cc1)Nc1ccc(NC2=NCCN2)cc1	condition met
N#Cc1ccc(-c2ccc(C(=O)NCCCCN3CCC(n4cnc5ccccc54)CC3)cc2)cc1	condition met
COc1ccc(CNC2CCN(C)CC2)cc1-c1cccc(S(=O)(=O)NCc2ccccc2)c1	condition not met
Cc1ccccc1C1CCN(C2CCC(NC(=O)/C=C/c3ccc(C(F)(F)F)cc3F)CC2)CC1 (stereo unspecified)	condition not met
Cc1c(-c2cccc(C(C)(C)NC3CCN(Cc4ccccc4)CC3)c2)cnc(N)c1C	condition met
CCCN1CCc2c(sc3nc(SCC(=O)Nc4ccc(C)cc4)n(-c4ccc(C)cc4)c(=O)c23)C1	condition met
Cc1cc(NCCC(=O)NCCOc2ccccc2)nc(NCc2ccccc2C)n1	condition met
COc1ccc(C(=O)N2CCC(C(=O)NC(C)c3ccc(-n4ccnc4)cc3)CC2)c2ccccc12 (stereo unspecified)	condition met
COc1ccc2nc3cc(Cl)ccc3c(Nc3ccc(C(=O)O)cc3)c2c1	condition met
NC(N)=NCCCCN(Cc1ccccc1)c1ccccc1	condition met
c1ccc(CCNCc2ccc(-c3cccc(CNc4ccc5ncccc5c4)c3)cc2)cc1	condition met
CCN(CC)CCCN1CCN(C(=O)c2cccc(-c3noc(C(F)(F)F)n3)c2)CC1	condition met
CCc1sc(-c2cc(Cl)ccc2OC)nc1C(=O)NCCN1CCCCC1	condition met
O=C(/C=C/c1ccc(Cl)c(Cl)c1)NCCCCCN1CCC(CCNC(=O)C2(c3ccc(Cl)cc3)CC2)CC1	condition not met
c1ccc2c(NCCc3cnc[nH]3)c3ccccc3nc2c1	condition met
CC(=O)c1cccc2cc(C(=O)NC3CCC(CCN4CCc5ccc(C#N)cc5C4)CC3)[nH]c12 (stereo unspecified)	condition met
CCNc1cc(C(=O)N[C@@H](Cc2ccccc2)[C@H](O)CNC(CC)c2cccc(Cl)c2)cc(N2CCCC2=O)c1 (stereo partly specified)	condition met
COc1cc(C(=O)Nc2cccc(-c3nc4ccccc4[nH]3)c2)cc(OC)c1OC	condition met
COc1cc2nc(N3CCC(CNC(=O)c4ccc(-c5ccc(Cl)cc5)cc4)CC3)nc(N)c2cc1OC	condition not met
O=C(Cc1cccc(Cl)c1)Nc1cccc(-c2c[nH]c3nc(Nc4cccc(O)c4)ncc23)c1	condition met
Cc1ccccc1C1CCN(C2CCC(NC(=O)c3cncc(-c4ccccc4)c3)CC2)CC1 (stereo unspecified)	condition met
Cn1c(Nc2cc(C(C)(C)C)on2)nc2cc(Nc3ccnc(Nc4ccc(CS(C)(=O)=O)cc4)n3)ccc21	condition met
CC(C)n1c(C2CCN(CC3CCN(C(=O)/C=C/c4ccc(Cl)c(Cl)c4)CC3)CC2)nc2ccccc21	condition met
CCOc1ccccc1N1CCN(CCCNC(=O)/C(=C/C=C/c2cc3cc(Cl)c(Cl)cc3[nH]2)OC)CC1	condition not met
COc1ccc(-c2ccc(NC(=O)c3cccc(Cl)c3)cc2)cc1CN1CCN(C)CC1	condition not met
c1ccc2c(NCCCCCCCNc3ccnc4ccccc34)ccnc2c1	condition not met
O=C(Cn1c(SCc2cccc(F)c2F)cc(=O)c2ccccc21)N(CCn1ccnc1)Cc1ccc(-c2ccc(C(F)(F)F)cc2)cc1	condition met
Cc1nc(-c2ccc(-c3ccc(NC(=O)c4coc5ccc(N6C[C@@H](C)N(C)[C@@H](C)C6)cc45)cc3)c(C)c2)no1	condition met
CCCCCCCOc1ccc(NC(=O)Nc2ccc(Cn3ncc(N4CCCNCC4)c(Cl)c3=O)cc2)cc1	condition not met
Cc1cc(-c2ccc(NC(=O)Nc3ccc4nccc(N5CCN(C)CC5)c4c3)cc2C)cc(C)n1	condition met
